Can you tell me IC50 for the items I'm about to list?
Target: P70 S6 kinase (T412E) (Homo sapiens, UniProt P23443, T412E)
Sequence (P23443 whole entry T412E): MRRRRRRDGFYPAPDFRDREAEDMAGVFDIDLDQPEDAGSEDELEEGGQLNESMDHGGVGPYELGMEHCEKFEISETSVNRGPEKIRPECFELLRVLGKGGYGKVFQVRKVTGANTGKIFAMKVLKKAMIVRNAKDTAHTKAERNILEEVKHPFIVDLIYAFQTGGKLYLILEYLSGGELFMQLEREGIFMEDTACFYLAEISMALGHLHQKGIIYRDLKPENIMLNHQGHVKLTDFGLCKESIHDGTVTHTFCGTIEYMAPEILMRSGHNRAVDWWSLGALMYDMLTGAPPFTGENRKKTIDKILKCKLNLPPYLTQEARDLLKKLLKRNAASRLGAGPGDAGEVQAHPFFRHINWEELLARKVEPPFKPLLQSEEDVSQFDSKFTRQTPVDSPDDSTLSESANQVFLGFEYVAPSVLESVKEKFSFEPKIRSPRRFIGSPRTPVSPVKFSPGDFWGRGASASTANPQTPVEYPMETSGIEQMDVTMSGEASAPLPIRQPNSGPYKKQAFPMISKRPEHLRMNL
Test: Inhibition of p70S6 Kinase
Conditions: 25 μM ATP, 5 nM enzyme, relative IC50
Where a name gives a salt, the structure may show the parent alone.
Number in nM, nothing else.

For the molecule Cl.FC(F)(F)c1cccc(-c2c[nH]c(C3CCN(c4ncnc5[nH]ncc45)CC3)n2)c1 [Example 5, hydrochloride] , what IC50 is on record? 29.4

Can you look up the measured IC50 of Fc1ccc(-c2cnc(C3CCN(c4ncnc5[nH]cnc45)CC3)[nH]2)cc1C(F)(F)F [Example 8, hydrochloride] for me? 7.58

Could you share which IC50 value was measured for Cn1cc(-c2ccc(F)c(C(F)(F)F)c2)nc1C1CCN(c2ncnc3[nH]ncc23)CC1 [Example 10, hydrochloride] ? 3.79

Which measured IC50 value corresponds to Cc1ccc(S(=O)(=O)O)cc1.Cn1cc(-c2ccc(F)c(C(F)(F)F)c2)nc1C1CCN(c2ncnc3[nH]ncc23)CC1 [Example 57, p-toluenesulfonate] ? 12.7

Entry Fc1ccc(-c2c[nH]c(C3CCN(c4ncnc5[nH]ccc45)CC3)n2)cc1C(F)(F)F [Example 7, hydrochloride] has what IC50? 10.3

---

Target: p70 S6K (Homo sapiens)
Construct: endogenous in cells
Sequence (P23443 whole entry): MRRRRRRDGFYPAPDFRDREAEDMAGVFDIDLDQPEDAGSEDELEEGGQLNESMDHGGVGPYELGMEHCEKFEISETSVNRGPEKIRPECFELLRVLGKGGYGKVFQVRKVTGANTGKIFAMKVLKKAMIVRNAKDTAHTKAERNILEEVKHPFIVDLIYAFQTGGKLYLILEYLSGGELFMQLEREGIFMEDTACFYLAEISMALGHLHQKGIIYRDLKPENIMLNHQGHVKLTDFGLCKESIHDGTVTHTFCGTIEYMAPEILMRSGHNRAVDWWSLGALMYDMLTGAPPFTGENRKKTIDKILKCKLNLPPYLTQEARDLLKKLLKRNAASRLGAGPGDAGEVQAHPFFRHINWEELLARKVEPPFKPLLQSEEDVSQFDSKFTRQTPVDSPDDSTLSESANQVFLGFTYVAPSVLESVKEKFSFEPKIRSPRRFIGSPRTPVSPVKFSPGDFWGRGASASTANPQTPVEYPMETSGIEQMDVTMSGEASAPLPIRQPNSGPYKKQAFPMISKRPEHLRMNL
Assay: Determination of p70 S6K In Vivo Target Inhibition (HCT 116)
Conditions: HCT 116 xenograft, PO; potency based on plasma exposure; phosphorylation of S6RP serine 240/244
Where a name gives a salt, the structure may show the parent alone.
Consider the following compounds; for each one, report its IC50.

Any idea what its IC50 is? The compound is Fc1ccc(-c2c[nH]c(C3CCN(c4ncnc5[nH]ccc45)CC3)n2)cc1C(F)(F)F [Example 7, hydrochloride] 1.92 µM

Query: IC50; subject: Cl.FC(F)(F)c1cccc(-c2c[nH]c(C3CCN(c4ncnc5[nH]ncc45)CC3)n2)c1 [Example 5, hydrochloride] 7.3 µM

Given the compound Fc1ccc(-c2cnc(C3CCN(c4ncnc5[nH]cnc45)CC3)[nH]2)cc1C(F)(F)F [Example 8, hydrochloride] , what is its reported IC50? 47.7 µM

Endpoint output: IC50 of Cn1cc(-c2ccc(F)c(C(F)(F)F)c2)nc1C1CCN(c2ncnc3[nH]ncc23)CC1 [Example 10, hydrochloride] . Value? 1.97 µM

---

Test system: NCI-H460
Assay: Cell assay (Alamar Blue, 72 hours) NCI-H460
Type: cell-based
Conditions: Homo sapiens
endpoint-name: IC50

Sample Cc1ccc(S(=O)(=O)O)cc1.Cn1cc(-c2ccc(F)c(C(F)(F)F)c2)nc1C1CCN(c2ncnc3[nH]ncc23)CC1 [Example 57, p-toluenesulfonate] — what was its IC50? 24 µM
